tested on: MCF7; test: Antiproliferative activity against human MCF7 cells at 30 uM after 72 hrs by MTT assay; format: functional; conditions: MCF7, 72 h
MEASUREMENT_NAME: inhibition at 30 µM (%)
Numbers only; they are read as %.

Prompt line: # return recorded inhibition at 30 µM for entry CC(=O)O[C@H]1CC[C@@]2(C)C(=CC[C@H]3[C@@H]4CC[C@H](C(=O)O/N=C(\N)c5ccc(C)cc5)[C@@]4(C)CC[C@@H]32)C1
Response line: 76

Prompt line: State, in one line, measured inhibition at 30 µM of CC(=O)O[C@H]1CC[C@@]2(C)C(=CC[C@H]3[C@@H]4CC[C@H](c5nc(-c6ccccc6)no5)[C@@]4(C)CC[C@@H]32)C1
Response line: 43.2

Prompt line: Identify measured inhibition at 30 µM corresponding to CC(=O)O[C@H]1CC[C@@]2(C)C(=CC[C@@H]3[C@@H]2CC[C@]2(C)C(C(=O)O/N=C(\N)c4ccccc4)=CC[C@@H]32)C1
Response line: 91.3

Prompt line: Could you please provide reported inhibition at 30 µM for CC(=O)O[C@H]1CC[C@@]2(C)C(=CC[C@H]3[C@@H]4CC[C@H](C(=O)O/N=C(\N)c5ccccc5)[C@@]4(C)CC[C@@H]32)C1 ? Thanks!
Response line: 78.8

Prompt line: Supply reported inhibition at 30 µM belonging to this compound: COc1ccc(-c2noc(C3=CC[C@H]4[C@@H]5CC=C6C[C@@H](O)CC[C@]6(C)[C@H]5CC[C@]34C)n2)cc1
Response line: 85.5

Prompt line: # return recorded inhibition at 30 µM for input COc1ccc(-c2noc([C@H]3CC[C@H]4[C@@H]5CC=C6C[C@@H](OC(C)=O)CC[C@]6(C)[C@H]5CC[C@]34C)n2)cc1
Response line: 43.2

Prompt line: Specify measured inhibition at 30 µM for COc1ccc(-c2noc([C@H]3CC[C@H]4[C@@H]5CC=C6C[C@@H](O)CC[C@]6(C)[C@H]5CC[C@]34C)n2)cc1 .
Response line: 63

Prompt line: Look up and state reported inhibition at 30 µM for CC(=O)O[C@H]1CC[C@@]2(C)C(=CC[C@@H]3[C@@H]2CC[C@]2(C)C(C(=O)O/N=C(\N)c4ccc(Br)cc4)=CC[C@@H]32)C1
Response line: 92.5

Prompt line: Input C[C@]12CC[C@H](O)CC1=CC[C@@H]1[C@@H]2CC[C@]2(C)C(c3nc(-c4ccc(Br)cc4)no3)=CC[C@@H]12 , output reported inhibition at 30 µM.
Response line: 92.3

Prompt line: Quick one: give measured inhibition at 30 µM for CC(=O)O[C@H]1CC[C@@]2(C)C(=CC[C@@H]3[C@@H]2CC[C@]2(C)C(C(=O)O/N=C(/C)N)=CC[C@@H]32)C1
Response line: 89.3

Prompt line: Give reported inhibition at 30 µM value for CC(=O)O[C@H]1CC[C@@]2(C)C(=CC[C@@H]3[C@@H]2CC[C@]2(C)C(c4nc(-c5ccccc5)no4)=CC[C@@H]32)C1
Response line: 39

Prompt line: Please supply the value of reported inhibition at 30 µM for the item CC(=O)O[C@H]1CC[C@@]2(C)C(=CC[C@H]3[C@@H]4CC[C@H](c5nc(C)no5)[C@@]4(C)CC[C@@H]32)C1
Response line: 30.6
